# Test system: A549/ATCC NSCLC
# Method notes: NCI-60 one-dose screen, 48 h (100 = growth as untreated, 0 = no growth, -100 = all killed)
# Assay setup: 10 µM unless noted
This is part of a sample that, as a whole, favours compounds with a hit. Of some 83,000 tested, about 20% had one in any assay.
Property: growth (%)
Give the number; % is assumed, so skip it.

// below: answered compounds
[
  {
    "Compound": "O=C(Nc1ccc(F)cc1F)c1cc(Br)ccc1O",
    "Result number": 5.78
  },
  {
    "Compound": "Nc1ncnc(N)c1NC(=O)c1ccc(OCc2ccccc2)cc1",
    "Result number": 103
  },
  {
    "Compound": "COc1ccc2[nH]c(O)c(N=NC(=O)c3oc4ccccc4c3C)c2c1",
    "Result number": -23.6
  },
  {
    "Compound": "O=C(NN1C(=O)CSC1c1ccc(Cl)cc1)c1[nH]c2ccc(F)cc2c1-c1ccccc1 (stereo not given)",
    "Result number": 26.9
  }
]

Now let's try a different one.
CCN(CC)CCNC(=O)C(Cl)=C1C(Cl)=C(Cl)C(Cl)=C1Cl yielded growth of 46.6
